Where do the numbers come from? From patent US4191808A.

Target: X-prolyl dipeptidyl-aminopeptidase in human serum (Homo sapiens, UniProt P27487)
Construct: Even if crude enzyme such as human serum is used as enzyme source, the activity is accurately measured; from tissue; host or cells: human serum (normal subjects and patients)
Sequence (P27487 39-766 limits assumed): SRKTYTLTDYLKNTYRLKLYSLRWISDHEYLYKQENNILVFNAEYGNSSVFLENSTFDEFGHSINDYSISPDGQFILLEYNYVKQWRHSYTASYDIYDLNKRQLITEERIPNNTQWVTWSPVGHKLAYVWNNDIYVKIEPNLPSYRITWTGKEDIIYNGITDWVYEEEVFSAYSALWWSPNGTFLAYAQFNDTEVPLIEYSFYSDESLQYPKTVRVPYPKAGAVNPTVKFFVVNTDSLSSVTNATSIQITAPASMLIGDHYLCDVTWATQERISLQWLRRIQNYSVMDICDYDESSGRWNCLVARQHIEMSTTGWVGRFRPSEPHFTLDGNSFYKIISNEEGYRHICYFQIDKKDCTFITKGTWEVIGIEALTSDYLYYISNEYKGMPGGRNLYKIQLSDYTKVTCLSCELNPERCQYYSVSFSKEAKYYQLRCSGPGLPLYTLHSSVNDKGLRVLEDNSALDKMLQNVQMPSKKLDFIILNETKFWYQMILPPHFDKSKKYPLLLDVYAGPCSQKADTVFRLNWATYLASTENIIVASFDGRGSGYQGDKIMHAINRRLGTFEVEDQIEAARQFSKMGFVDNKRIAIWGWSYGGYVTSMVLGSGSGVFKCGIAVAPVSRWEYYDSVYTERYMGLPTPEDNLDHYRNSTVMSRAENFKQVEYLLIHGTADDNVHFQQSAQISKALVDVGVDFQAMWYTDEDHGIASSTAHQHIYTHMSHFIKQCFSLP
Test: Direct photometric assay of substrate hydrolysis (p-nitroaniline liberated, 385 nm) with human serum as enzyme source
Format: biochemical
Conditions: human sera from patients, Hepatitis, 3 cases
Method: The relation between the incubation time and the amount of substrate hydrolyzed was examined, glycyl-L-proline p-nitroanilide and human serum being used as substrate and enzyme source, respectively, and the assay of the substrate hydrolyzed was carried out by the following direct photometric method. […] ^c Activities were measured at pH 7.0 in 0.15 M Trismaleate buffer or […]
Peptide text beside a SMILES is read from it. * marks the point of attachment. pNA = O=[N+]([O-])c1ccc(N*)cc1
assayMetric: Enzyme activity (μmole/min/1 serum ± S.E.) (μmole/min/1 serum)
State just the number; it will be interpreted in μmole/min/1 serum.

molecule	observedMeasurement
N[C@@H](CC(=O)O)C(=O)N1CCC[C@H]1C(=O)Nc1ccc([N+](=O)[O-])cc1 [L-aspartyl-L-proline p-nitroanilide, L-Aspartyl-L-proline p-nitroanilide] (H-Asp-Pro-pNA)	102.5
NCC(=O)N1CCC[C@H]1C(=O)Nc1ccc([N+](=O)[O-])cc1 [glycyl-L-proline p-nitroanilide, Glycyl-L-proline p-nitroanilide] (H-Gly-Pro-pNA)	143.0
Cc1ccc(S(=O)(=O)O)cc1.Cc1ccc(S(=O)(=O)O)cc1.NCCCC[C@H](N)C(=O)N1CCC[C@H]1C(=O)Nc1ccc([N+](=O)[O-])cc1 [L-lysyl-L-proline p-nitroanilide] (H-Lys-Pro-pNA)	49.7
Cc1ccc(S(=O)(=O)O)cc1.Cc1ccc(S(=O)(=O)O)cc1.N=C(N)NCCC[C@H](N)C(=O)N1CCC[C@H]1C(=O)Nc1ccc([N+](=O)[O-])cc1 [L-arginyl-L-proline p-nitroanilide] (H-Arg-Pro-pNA)	35.5
N[C@@H](CCC(=O)O)C(=O)N1CCC[C@H]1C(=O)Nc1ccc([N+](=O)[O-])cc1 [L-glutamyl-L-proline p-nitroanilide, L-Glutamyl-L-proline p-nitroanilide] (H-Glu-Pro-pNA)	74.8

QUERY: Enzyme activity (μmole/min/1 serum ± S.E.) lookup needed for C[C@H](N)C(=O)N1CCC[C@H]1C(=O)Nc1ccc([N+](=O)[O-])cc1.Cl [L-alanyl-L-proline p-nitroanilide] (H-Ala-Pro-pNA) , thanks.
RESULT: 99.5

###

Tested on: purified human submaxillary enzyme (X-prolyl dipeptidyl-aminopeptidase)
Assay: Direct photometric assay of substrate hydrolysis with purified human submaxillary enzyme
Format: biochemical
Details: Tris-maleate, glycine-NaOH or amidiol buffer
Procedure: 3mM substrate solutions were prepared as in Example 22, various dipeptide derivatives or salts thereof being used as substrates. The relative enzyme activities toward various substrates, and the rates and optimum pHs of hydrolysis of various substrates with the enzyme were measured as in Example 22. ^a Activities were measured in 0.15 M Trismaleate buffer at pH 5.6-8. and in 0.15 M glycineNaOH buffer at pH 8.2-9.4, purified human […] ^b Km values were measured at 7.0 in Trismaleate buffer, purified […]
Peptide text beside a SMILES is read from it. * marks the point of attachment. pNA = O=[N+]([O-])c1ccc(N*)cc1
assayMetric: Optimum pH

// below: answered compounds
compound	observedMeasurement
Cc1ccc(S(=O)(=O)O)cc1.Cc1ccc(S(=O)(=O)O)cc1.NCCCC[C@H](N)C(=O)N1CCC[C@H]1C(=O)Nc1ccc([N+](=O)[O-])cc1 [L-lysyl-L-proline p-nitroanilide] (H-Lys-Pro-pNA)	8.5-8.7
Cc1ccc(S(=O)(=O)O)cc1.Cc1ccc(S(=O)(=O)O)cc1.N=C(N)NCCC[C@H](N)C(=O)N1CCC[C@H]1C(=O)Nc1ccc([N+](=O)[O-])cc1 [L-arginyl-L-proline p-nitroanilide] (H-Arg-Pro-pNA)	7.8-8.0
NCC(=O)N1CCC[C@H]1C(=O)Nc1ccc([N+](=O)[O-])cc1 [glycyl-L-proline p-nitroanilide, Glycyl-L-proline p-nitroanilide] (H-Gly-Pro-pNA)	8.5-8.7
N[C@@H](CCC(=O)O)C(=O)N1CCC[C@H]1C(=O)Nc1ccc([N+](=O)[O-])cc1 [L-glutamyl-L-proline p-nitroanilide, L-Glutamyl-L-proline p-nitroanilide] (H-Glu-Pro-pNA)	8.5-8.7
N[C@@H](CC(=O)O)C(=O)N1CCC[C@H]1C(=O)Nc1ccc([N+](=O)[O-])cc1 [L-aspartyl-L-proline p-nitroanilide, L-Aspartyl-L-proline p-nitroanilide] (H-Asp-Pro-pNA)	8.5-8.7

Switching to the query record.
QUERY: Optimum pH lookup needed for C[C@H](N)C(=O)N1CCC[C@H]1C(=O)Nc1ccc([N+](=O)[O-])cc1.Cl [L-alanyl-L-proline p-nitroanilide] (H-Ala-Pro-pNA) , thanks.
RESULT: 8.5-8.7
